The following compounds each carry a recorded IC50 for HGFR (His6-HGFR cytoplasmic domain) (Homo sapiens, UniProt P08581).
Answers are plain numbers, in nM.

Example results:
>>> print(df.to_string())
                               query_smiles                     target_or_test_system  unit_symbol  numeric_readout
0  O=C(Cc1ccc(F)cc1)NC(=O)Nc1ccc(Oc2ccnc(NC(=O)N3CCC(CN4CCCC4)CC3)c2)cc1  HGFR (His6-HGFR cytoplasmic domain) (Homo sapiens, UniProt P08581)           nM              120
1  CN(C)CCN1CCN(C(=O)Nc2cc(Oc3ccc(NC(=S)NC(=O)Cc4ccccc4)cc3F)ccn2)CC1  HGFR (His6-HGFR cytoplasmic domain) (Homo sapiens, UniProt P08581)           nM               54
2  O=C(Cc1ccc(F)cc1)NC(=O)Nc1ccc(Oc2ccnc(NC(=O)N3CCC(N4CCCC4)CC3)c2)c(F)c1  HGFR (His6-HGFR cytoplasmic domain) (Homo sapiens, UniProt P08581)           nM               74
3  CN(C)C1CCN(C(=O)Nc2cc(Oc3ccc(NC(=S)NC(=O)Cc4ccccc4)cc3F)ccn2)CC1  HGFR (His6-HGFR cytoplasmic domain) (Homo sapiens, UniProt P08581)           nM               26
4  CN(C)CCN1CCN(C(=O)Nc2cc(Oc3ccc(NC(=S)NC(=O)Cc4ccc(F)cc4)cc3)ccn2)CC1  HGFR (His6-HGFR cytoplasmic domain) (Homo sapiens, UniProt P08581)           nM               75

I have 7 compounds here; please give me IC50 for each one.
1. O=C(Cc1ccc(F)cc1)NC(=S)Nc1ccc(Oc2ccnc(NC(=O)N3CCCC3)c2)cc1
2. CN1CCCN(C(=O)Nc2cc(Oc3ccc(NC(=O)CC(=O)Nc4ccc(F)cc4)c(F)c3)ccn2)CC1
3. O=C(Cc1ccc(F)cc1)NC(=S)Nc1ccc(Oc2cc(NC(=O)N3CCC(N4CCC4)CC3)ncn2)c(F)c1
4. CN(C)CCN1CCC(N(C)C(=O)Nc2cc(Oc3ccc(NC(=S)NC(=O)Cc4ccccc4)cc3F)ccn2)CC1
5. CN(C)CCN1CCN(C(=O)Nc2cc(Oc3ccc(NC(=O)NC(=O)Cc4ccccc4)cc3F)ccn2)CC1
6. CN1CC(N2CCN(C(=O)Nc3cc(Oc4ccc(NC(=O)NC(=O)Cc5ccc(F)cc5)cc4)ccn3)CC2)C1
7. CN1CCC(N2CCN(C(=O)Nc3cc(Oc4ccc(NC(=O)NC(=O)Cc5ccccc5)cc4F)ccn3)CC2)CC1

1. 53
2. 78
3. 64
4. 58
5. 97
6. 65
7. 100

---

Target: HGFR (His6-HGFR cytoplasmic domain) (Homo sapiens)
Sequence (P08581 956-1390 limits assumed): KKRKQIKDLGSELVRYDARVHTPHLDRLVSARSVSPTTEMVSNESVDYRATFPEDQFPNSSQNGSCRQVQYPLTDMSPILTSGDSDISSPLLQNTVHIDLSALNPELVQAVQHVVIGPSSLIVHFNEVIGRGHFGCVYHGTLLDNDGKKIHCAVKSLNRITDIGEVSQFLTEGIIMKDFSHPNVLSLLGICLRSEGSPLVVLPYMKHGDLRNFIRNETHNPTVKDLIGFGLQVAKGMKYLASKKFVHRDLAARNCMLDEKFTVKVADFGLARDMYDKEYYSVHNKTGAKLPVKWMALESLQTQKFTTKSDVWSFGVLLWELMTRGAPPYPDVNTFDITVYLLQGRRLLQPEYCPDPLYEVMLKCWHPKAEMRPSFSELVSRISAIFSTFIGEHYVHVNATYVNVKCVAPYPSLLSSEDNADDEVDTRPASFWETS
Would you kindly list IC50 for each of these compounds?
Numbers only, in nM.

>>> df
                               query_smiles  numeric_readout
0  CN1CCN(C2CCN(C(=O)Nc3cc(Oc4ccc(NC(=O)NC(=O)Cc5ccc(F)cc5)cc4)ccn3)CC2)CC1              110
1  CN1CCC(N(C)C(=O)Nc2cc(Oc3ccc(NC(=S)NC(=O)Cc4ccc(F)cc4)cc3F)ncn2)CC1               66
2  CN(C)C[C@@H]1CCN(C(=O)Nc2cc(Oc3ccc(NC(=S)NC(=O)Cc4ccc(F)cc4)c(F)c3)ccn2)C1               42
3  CN1CCC(N(C)C(=O)Nc2cc(Oc3ccc(NC(=S)NC(=O)Cc4ccccc4)cc3F)ccn2)CC1               75
4  CN1CCC[C@@H](N(C)C(=O)Nc2cc(Oc3ccc(NC(=S)NC(=O)Cc4ccc(F)cc4)cc3F)ncn2)C1               48

Record IC50 for all entries; do not skip any.
1. O=C(Cc1ccccc1)NC(=S)Nc1ccc(Oc2ccnc(NC(=O)N3CCC3)c2)cc1Cl
2. O=C(CC(=O)Nc1c(F)cccc1F)Nc1ccc(Oc2ccnc(NC(=O)N3CCCC3)c2)c(F)c1

[200, 100]

---

Record set of pIC50 for target or system HGFR (His6-HGFR cytoplasmic domain) (Homo sapiens).
Give bare numbers, as −log10 of the molar value.

Solved entries (count: 4):
>>> print(df.to_string())
                                   molecule  measure  numeric_readout
0  CC(C)C(=O)Nc1cc(Oc2ccc(NC(=O)CC(=O)Nc3ccc(F)cc3)c(F)c2)ccn1 [Example 76]    pIC50             7.00
1  O=C(Cc1ccccc1)NC(=O)Nc1ccc(Oc2cc(NC(=O)N3CCCC3)ncn2)c(F)c1 [Example 46]    pIC50             7.35
2  O=C(Cc1ccc(F)cc1)NC(=S)Nc1ccc(Oc2ccnc(NC(=O)N3CCN(CCN4CCC4)CC3)c2)cc1 [Example 398]    pIC50             7.33
3  CC(=O)N1CCC(N(C)C(=O)Nc2cc(Oc3ccc(NC(=S)NC(=O)Cc4ccc(F)cc4)cc3F)ncn2)CC1 [Example 314]    pIC50             7.51

Quick one: give me pIC50 for each item below, same order please.
1. O=C(CC(=O)Nc1ccc(Oc2ccnc(NC(=O)N3CCCC3)c2)c(Cl)c1)Nc1ccc(F)cc1 [Example 67]
2. CN(C)C1CN(C2CCN(C(=O)Nc3cc(Oc4ccc(NC(=S)NC(=O)Cc5ccc(F)cc5)cc4)ccn3)CC2)C1 [Example 195]

7.17
7.24

Item O=C(CC(=O)Nc1ccc(Oc2ccnc(NC(=O)N3CCOCC3)c2)cc1)Nc1ccc(F)cc1 [Example 71] has what recorded pIC50? 7.60

---

Molecular target: HGFR autophosphorylation (Homo sapiens)
Construct: endogenous in cells
Sequence (P08581 25-1390): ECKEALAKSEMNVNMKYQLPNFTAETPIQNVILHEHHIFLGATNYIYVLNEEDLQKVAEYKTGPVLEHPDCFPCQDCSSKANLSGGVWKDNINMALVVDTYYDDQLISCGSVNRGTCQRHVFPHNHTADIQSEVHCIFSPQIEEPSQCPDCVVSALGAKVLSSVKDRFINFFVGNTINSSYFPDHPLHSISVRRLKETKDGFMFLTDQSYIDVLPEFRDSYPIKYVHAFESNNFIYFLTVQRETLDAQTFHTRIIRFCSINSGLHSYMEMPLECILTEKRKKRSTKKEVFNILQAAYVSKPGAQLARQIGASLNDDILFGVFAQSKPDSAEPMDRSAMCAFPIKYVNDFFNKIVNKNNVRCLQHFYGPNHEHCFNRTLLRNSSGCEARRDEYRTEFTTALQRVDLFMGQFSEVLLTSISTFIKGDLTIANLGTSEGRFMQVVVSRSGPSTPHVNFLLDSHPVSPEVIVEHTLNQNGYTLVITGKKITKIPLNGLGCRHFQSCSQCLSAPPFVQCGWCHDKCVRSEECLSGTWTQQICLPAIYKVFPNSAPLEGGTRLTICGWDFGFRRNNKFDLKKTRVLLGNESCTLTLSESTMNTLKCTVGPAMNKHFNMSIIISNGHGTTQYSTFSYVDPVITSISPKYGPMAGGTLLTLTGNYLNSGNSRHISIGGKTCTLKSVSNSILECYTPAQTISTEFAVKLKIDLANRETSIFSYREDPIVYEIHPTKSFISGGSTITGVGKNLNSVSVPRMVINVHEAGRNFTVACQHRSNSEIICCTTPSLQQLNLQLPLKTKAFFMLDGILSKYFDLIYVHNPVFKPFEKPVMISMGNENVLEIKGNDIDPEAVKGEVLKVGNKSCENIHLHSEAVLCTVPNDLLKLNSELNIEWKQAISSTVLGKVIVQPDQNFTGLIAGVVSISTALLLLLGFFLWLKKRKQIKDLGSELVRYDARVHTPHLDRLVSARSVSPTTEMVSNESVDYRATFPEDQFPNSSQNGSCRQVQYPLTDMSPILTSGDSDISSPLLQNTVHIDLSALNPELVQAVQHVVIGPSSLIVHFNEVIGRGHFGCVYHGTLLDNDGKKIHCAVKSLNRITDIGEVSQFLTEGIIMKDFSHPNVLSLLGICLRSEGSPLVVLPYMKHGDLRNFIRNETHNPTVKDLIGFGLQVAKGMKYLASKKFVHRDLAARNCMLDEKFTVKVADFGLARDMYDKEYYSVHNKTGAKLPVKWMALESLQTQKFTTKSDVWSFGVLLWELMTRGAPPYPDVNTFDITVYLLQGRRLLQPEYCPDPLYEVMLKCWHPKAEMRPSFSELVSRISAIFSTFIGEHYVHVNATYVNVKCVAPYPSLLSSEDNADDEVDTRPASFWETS
Test: Inhibitory activity against the HGFR autophosphorylation using ELISA
Conditions: MKN-45 cells, 1 hr treatment, read-out: IC50 (concentration necessary to inhibit HGFR autophosphorylation activity by 50%)
I'd appreciate it if you marked entries y when IC50 is lower than 90 nM and n when it is not.

Report whether reported IC50 is lower than 90 nM (strictly) for O=C(Cc1ccc(F)cc1)NC(=S)Nc1ccc(Oc2cc(NC(=O)N3CCCC3)ncn2)c(F)c1 [Example 3] y

Entry to check: O=C(Cc1ccccc1)NC(=S)Nc1ccc(Oc2ccnc(NC(=O)N3CCOCC3)c2)c(Cl)c1 [Example 11] y

Another: O=C(Cc1ccccc1)NC(=O)Nc1ccc(Oc2ccnc(NC(=O)N3CCCC3)c2)c(F)c1 [Example 43] y

Request: Cc1cc(Oc2ccnc(NC(=O)N3CCC(N4CCCC4)CC3)c2)ccc1NC(=O)CC(=O)Nc1ccc(F)cc1 [Example 85] n

Another compound: Cc1cc(NC(=S)NC(=O)Cc2ccc(F)cc2)ccc1Oc1ccnc(NC(=O)N2CCOCC2)c1 [Example 24] y

One more compound: CN1CCC(N(C)C(=O)Nc2cc(Oc3ccc(NC(=O)CC(=O)Nc4ccc(F)cc4)cc3F)ccn2)CC1 [Example 89] y

Next: CN(C)C(=O)Nc1cc(Oc2ccc(NC(=S)NC(=O)CC3CC4CCC3C4)cc2F)ccn1 (stereo not drawn) [Example 17] n

Also CCN(CC)CCCN(C)C(=O)Nc1cc(Oc2ccc(NC(=S)NC(=O)Cc3ccc(F)cc3)cc2F)ccn1 [Example 22] ? y

---

Test system: Human umbilical vein endothelial cells (HUVECs)
Assay: Inhibitory activity against the growth of vascular endothelial cells stimulated with hepatocyte growth factor
Format: cell-based
Settings: HUVEC, HGF stimulation, third day, Cell Counting Kit-8, read-out: IC50 (concentration necessary to inhibit cell proliferation activity by 50%)
What pIC50 was measured for each of the following?
Give bare numbers, as −log10 of the molar value.

>>> print(df.to_string())
                                   molecule  numeric_readout
0  O=C(Cc1ccc(F)cc1)NC(=S)Nc1ccc(Oc2ccnc(NC(=O)N3CCCC3)c2)c(F)c1 [Example 13]             7.14

Would you kindly look at the next entry?
Please report the recorded pIC50 for O=C(Cc1ccc(F)cc1)NC(=S)Nc1ccc(Oc2cc(NC(=O)N3CCCC3)ncn2)c(F)c1 [Example 3] . 6.72

---

Test system: Human umbilical vein endothelial cells (HUVECs)
Test: Inhibitory activity against sandwich tube formation by vascular endothelial cells stimulated with hepatocyte growth factor
Type: cell-based
Conditions: HUVEC in collagen gel, 30 ng/ml HGF, fourth day, total tube length, read-out: IC50 (concentration necessary to inhibit the tube formation by 50%)
MEASURE: IC50 (nM)
Answers are plain numbers, in nM.

Any idea what IC50 was measured for O=C(Cc1ccc(F)cc1)NC(=S)Nc1ccc(Oc2ccnc(NC(=O)N3CCCC3)c2)c(F)c1 [Example 13] ? 130

Every entry's value here was drawn from patent US20070270421A1.
